Test system: COLO 205 colon
assayNotes: NCI-60 one-dose screen, 48 h
cond: 10 µM unless noted
This is part of a sample that, as a whole, favours compounds with a hit. Of some 83,000 tested, about 20% had one in any assay. Active and inactive are the calls of the source. Rule for the calls: active = growth percent below 10; inactive = the rest.
Thanks in advance; please answer with one of these: active, inactive

Worked set:
compound	qualitativeLabel
CS(=O)(=O)c1ccc(C(=O)N/N=C/c2ccccc2Cl)cc1	inactive
COc1cc2ncnc(Nc3ccc(S(=O)(=O)Nc4nccs4)cc3)c2cc1OCCCN1CCOCC1	inactive

Q) // return assay outcome for O=C1OCC2=C1C(c1ccccc1)c1cc3c(cc1N2CCO)OCO3 (stereo not drawn)
A) active

----------
System: HCT-116 colon
assayNotes: NCI-60 one-dose screen, 48 h (100 = growth as untreated, 0 = no growth, -100 = all killed)
cond: 10 µM unless noted
About 83,000 compounds went through this panel and 20% of them were active in at least one assay; those are over-represented in the sample as a whole.
measuredQuantity: growth (%)
Entry rule: numbers only, all in %.

Here is how some compounds turned out for growth.
compound	measuredQuantity	observedResult
O=C(/C=C/c1ccccc1Br)c1cccc(OCCCCOc2cccc(C(=O)/C=C/c3ccccc3Br)c2)c1	growth	16.4
COc1ccc(C(=O)OC2C(OC3C(O)COC(O[C@H]4C[C@H]5[C@@H]6CC=C7C[C@@H](O)CC[C@]7(C)[C@H]6CC[C@]5(C)[C@H]4[C@H](C)C(=O)CCC(C)C)C3OC(C)=O)OCC(O)C2O)cc1 (stereo partly specified)	growth	1.33
COc1cc(Cl)cc(-c2nn(C(=O)NCCN3CCOCC3)cc2-c2ccncc2)c1	growth	51.3

Reported growth ( CC(C)(C)[Si](C)(C)OC1[C@@H](CNC(N)=O)O[C@@H](n2cnc3c(NC(=O)Nc4ccccc4)ncnc32)[C@H]1O[Si](C)(C)C(C)(C)C (stereo partly specified) ) = 0.343

Reported growth ( Fc1ccc(-c2cnc3nonc3n2)c(F)c1 ) = 96.9

Reported growth ( CCCCc1nc(Cl)c(C2CC(c3ccc(S(N)(=O)=O)cc3)=NN2c2cc(Cl)cc(Cl)c2)[nH]1 (stereo unspecified) ) = 14.7

----------
System: RXF 393 renal
assayNotes: NCI-60 one-dose screen, 48 h (100 = growth as untreated, 0 = no growth, -100 = all killed)
cond: 10 µM unless noted
About 83,000 compounds went through this panel and 20% of them were active in at least one assay; those are over-represented in the sample as a whole.
measuredQuantity: growth (%)
Entry rule: numbers only, all in %.

compound	growth, %
C[N+](C)(C)CC(=O)N/N=C\c1ccco1	118
CCN1CCN(Cc2ccc(NC(=O)Nc3ccc(-n4ccc5c(NC(=O)c6ccccc6)nccc54)cc3)cc2C(F)(F)F)CC1	-86.8
CC(=O)Cc1ccccn1	119
CN(C)c1nc(-c2cccs2)n2nc(-c3ccc(Cl)cc3)cc2n1	13.3
CCCCc1nc(Cl)c(C2CC(c3ccc(S(N)(=O)=O)cc3)=NN2c2ccc(C#N)cc2)[nH]1 (centres undefined)	81.1
COCc1nc(NS(=O)(=O)c2ccc(N)cc2)nc(C)c1Br	101
Cc1cc(C#Cc2ccc(C(C)(C)C)cc2)ccc1-n1c(/C=C/c2c(Cl)cccc2Cl)nc2ccccc2c1=O	127
OCCN(CCO)c1ccc2ccccc2c1	125
O=C(O)c1cc2cc(OCc3ccccc3)ccc2[nH]1	111
CC(C)[C@@H]1C=C2CC[C@H]3[C@](C)(CN)CCC[C@]3(C)[C@H]2CC1	87.9

Let me check: O=C(NCCN1CCCCC1)n1cc(-c2ccncc2)c(-c2ccc(Cl)c(O)c2)n1 , system RXF 393 renal, measured growth is 68

Let me check: Cc1ccc(NC(=O)c2cc(NCc3cc(O)ccc3O)ccc2O)cc1 , system RXF 393 renal, measured growth is 87.5

Let me check: N/N=C(\C(=N\N)c1ccccc1)c1ccccc1 , system RXF 393 renal, measured growth is 118

Let me check: COc1ccccc1CNCCCN1C(=O)c2ccc3c4c(ccc(c24)C1=O)C(=O)N(CCCCNCCCN)C3=O , system RXF 393 renal, measured growth is -4.56

----------
Catalogue of growth readings, one per entry.
System: HOP-62 NSCLC
assayNotes: NCI-60 one-dose screen, 48 h (100 = growth as untreated, 0 = no growth, -100 = all killed)
cond: 10 µM unless noted
This is part of a sample that, as a whole, favours compounds with a hit. Of some 83,000 tested, about 20% had one in any assay.
Entry rule: numbers only, all in %.

structureAsSmiles	observedResult
C=C1C(=O)O[C@H]2[C@H]1CC/C(COC(=O)N[C@@H](Cc1c[nH]c3ccccc13)C(=O)OC)=C\CC[C@@]1(C)O[C@@H]21	68.8
COc1ccc2[nH]cc(C3(c4c[nH]c5ccc(OC)cc45)C(=O)Nc4ccc(Cl)cc43)c2c1	85.2

In the following, a different compound is considered.
Let me check: COc1cc(/C=C\c2cc(/C=C\c3ccc(O)c(OC)c3)n(C(=O)Nc3ccc(C(F)(F)F)cc3)n2)ccc1O , system HOP-62 NSCLC, measured growth is 62.9

----------
Test system: SK-MEL-5 melanoma
assayNotes: NCI-60 one-dose screen, 48 h (100 = growth as untreated, 0 = no growth, -100 = all killed)
cond: 10 µM unless noted
This is part of a sample that, as a whole, favours compounds with a hit. Of some 83,000 tested, about 20% had one in any assay.
Catalogue of growth readings, one per entry.
Entry rule: numbers only, all in %.

compound	observedResult
CC1(C)CC(=O)c2cc3c(N)c(C(=O)Nc4ccc(Cl)cc4)sc3nc2C1	96
CC(C)(C)c1nn(-c2ccccc2)c2c1C(=O)CSC(c1ccc3c(c1)OCO3)N2 (stereo not drawn)	110
C=C(c1ccc(C(=O)NCCCn2ccnc2)cc1)c1cc2c(cc1C)C(C)(C)CCC2(C)C	0.58
CCOC(=O)c1cc(N)nc2ccccc12	106
O=C(CCCCCCN1CC(=O)N2[C@@H](c3ccc(Cl)c(Cl)c3)c3[nH]c4ccccc4c3C[C@H]2C1=O)NO	51.3

In the following, a different compound is considered.
Reported growth ( O=C(/C=C/c1ccc(F)cc1)N1CCN(C(=O)/C=C/c2ccc(C(F)(F)F)cc2)CC1 ) = 98.9

----------
Tested on: SR leukemia
assayNotes: NCI-60 one-dose screen, 48 h (100 = growth as untreated, 0 = no growth, -100 = all killed)
cond: 10 µM unless noted
This is part of a sample that, as a whole, favours compounds with a hit. Of some 83,000 tested, about 20% had one in any assay.
Label false if growth falls below 30%; label true in every other case.

molecule	qualitativeLabel
COc1ccc(-c2cc(-c3ccc(OC)cc3)c3sc(=O)[nH]c3n2)cc1	true
O=C(CSc1nc2c(n1Nc1ccccc1)-c1ccccc1SC2)Nc1nccs1	true
CN1C2CCC1/C(=C\c1ccc(F)cc1)C(=O)/C2=C/c1ccc(F)cc1	false
NS(=O)(=O)c1ccc(CCn2c(SCC(=O)N/N=C/c3cc4ccccc4[nH]3)nc3ccccc3c2=O)cc1	false
CCOC(=O)Cn1c(-c2nonc2NC(=O)c2ccccc2F)nc2ccccc21	false

Q) Has Nc1ncnc2c1N=C(c1ccc3c(c1)OCO3)CC(c1ccc(Cl)cc1)N2 (centres undefined) a recorded growth greater than or equal to 30%?
A) true

Q) Has CC(C)[C@@]12C[C@@H](OC(=O)C3CO3)[C@@](C)(O1)[C@@H]1CC[C@@H](C)[C@H]1[C@@H]2OC(=O)/C=C/c1ccccc1 (some centres undefined) a recorded growth greater than or equal to 30%?
A) true

Q) Has CC(C)(C)[Si](C)(C)OC1[C@@H](O[Si](C)(C)C(C)(C)C)[C@@H](CNC(=O)NC(=O)NC(=O)CCl)O[C@H]1n1cnc2c(NC(=O)Nc3ccccc3)ncnc21 (some centres undefined) a recorded growth greater than or equal to 30%?
A) false

----------
Test system: NCI-H460 lung
assayNotes: NCI-60 one-dose screen, 48 h
cond: 10 µM unless noted
The panel holds about 83,000 compounds, 20% with a hit somewhere; the sample as a whole holds those more often. Calls of active or inactive are those of the source. How the source made its calls: active means growth percent below 10; inactive means the rest.
Thanks in advance; please answer with one of these: active, inactive

Worked set:
molecule	assayedSystem	qualitativeLabel
COc1ccc(C(=O)OC2C(OC3C(O)COC(O[C@H]4C[C@H]5[C@@H]6CC=C7C[C@@H](O)CC[C@]7(C)[C@H]6CC[C@]5(C)[C@H]4[C@H](C)C(=O)CCC(C)C)C3OC(N)=O)OCC(O)C2O)cc1 (stereo partly specified)	NCI-H460 lung	active
COc1cc(OC)c(Cl)cc1N	NCI-H460 lung	inactive
C/C(=N\NC(=O)CSc1nc2ccccc2c(=O)n1CCc1ccc(S(N)(=O)=O)cc1)c1ccc(Br)cc1	NCI-H460 lung	inactive
COc1ccc(-c2cnc(-c3ccncc3-c3cccc(OC)c3)o2)cc1	NCI-H460 lung	active
COc1cc(C2CC(c3cccc(Nc4ccnc5cc(Cl)ccc45)c3)=NN2C=O)cc(OC)c1OC (stereo unspecified)	NCI-H460 lung	active
COc1ccc2[nH]cc(C3(c4c[nH]c5ccc(OC)cc45)C(=O)Nc4ccc(F)cc43)c2c1	NCI-H460 lung	active
O/N=C/c1ccncc1	NCI-H460 lung	inactive
C=CCOc1ccc2c(C)cc(=O)oc2c1	NCI-H460 lung	inactive

Q) // return assay outcome for COc1cc(C2CC(c3ccccc3)=NN2C=O)ccc1Oc1nc2c(c(=O)n(C)c(=O)n2C)n1C (stereo unspecified)
A) inactive

Q) // return assay outcome for Clc1ccccc1CNc1c2ccccc2nc2ccccc12
A) active

Q) // return assay outcome for CCCCCCCCCCCC1=NC(C)(C)CN1C(C)C
A) inactive
